# Assay Method Text: Biological tissue distribution in dogs after intravenous injection
# Assay type: in vivo, dog (Female Mongrel)
# Recorded Conditions: 2 hours, i.v. 100 μCi, Lung
Metric Name: tissue concentration (Mean + S.E.M.)

Incoming: Value lookup for tissue concentration (Mean + S.E.M.); key = "N=C(N)NCc1ccc(N)c([125I])c1"
Outgoing: 1.26 % kg dose/g

###

# Assay Method Text: Biological tissue distribution in dogs after intravenous injection
# Format: in vivo, dog (Female Mongrel)
# Recorded Conditions: 72 hours, i.v. 100 μCi, Lung
Metric Name: tissue concentration (Mean + S.E.M.) (% kg dose/g)
Could you give me the number in % kg dose/g? Just the number is fine.

Incoming: Value lookup for tissue concentration (Mean + S.E.M.); key = "N=C(N)NCc1ccc(N)c([125I])c1"
Outgoing: 0.09

###

# Assay Method Text: Biological tissue distribution in dogs after intravenous injection
# Assay type: in vivo, dog (Female Mongrel)
# Recorded Conditions: 30 min, i.v. 100 μCi, Adrenal Medulla
Metric Name: tissue concentration (Mean + S.E.M.) (% kg dose/g)
Could you give me the number in % kg dose/g? Just the number is fine.

Incoming: Value lookup for tissue concentration (Mean + S.E.M.); key = N=C(N)NCc1ccc(N)c([125I])c1 [I-125 4-amino-3-iodobenzylguanidine]
Outgoing: 8.8

###

# Assay Method Text: Biological tissue distribution in dogs after intravenous injection
# Type: in vivo, dog (Female Mongrel)
# Recorded Conditions: 72 hours, i.v. 100 μCi, Heart (Left Ventricle)
Metric Name: tissue concentration (Mean + S.E.M.)
Could you give the number and then its unit, please?

Incoming: Value lookup for tissue concentration (Mean + S.E.M.); key = "N=C(N)NCc1ccc(N)c([125I])c1"
Outgoing: 0.06 % kg dose/g

###

# Assay Method Text: Biological tissue distribution in dogs after intravenous injection
# Assay type: in vivo, dog (Female Mongrel)
# Recorded Conditions: 72 hours, i.v. 100 μCi, Blood
Metric Name: tissue concentration (Mean + S.E.M.) (% kg dose/g)
Could you give me the number in % kg dose/g? Just the number is fine.

Incoming: Value lookup for tissue concentration (Mean + S.E.M.); key = "N=C(N)NCc1ccc(N)c([125I])c1"
Outgoing: 0.02

###

# Assay Method Text: Biological tissue distribution in dogs after intravenous injection
# Type: in vivo, dog (Female Mongrel)
# Recorded Conditions: 2 hours, i.v. 100 μCi, Adrenal Cortex
Metric Name: tissue concentration (Mean + S.E.M.) (% kg dose/g)
Could you give me the number in % kg dose/g? Just the number is fine.

Incoming: Value lookup for tissue concentration (Mean + S.E.M.); key = N=C(N)NCc1ccc(N)c([125I])c1 [I-125 4-amino-3-iodobenzylguanidine]
Outgoing: 0.51

###

# Assay Method Text: Radio-decomposition on storage in buffer
# Assay type: physicochemical
# Recorded Conditions: up to 14 days, pH 4.8 sodium acetate buffer (0.005M), 1% (v/v) benzyl alcohol, 4° C., dark
Metric Name: degraded at 336 h

Incoming: Value lookup for degraded at 336 h; key = N=C(N)NCc1ccc(N)c([131I])c1 [I-131-labeled compound, ^131 I-4-Amino-3-Iodobenzylguanidine]
Outgoing: < 4%

###

# Assay Method Text: Biological tissue distribution in dogs after intravenous injection
# Format: in vivo, dog (Female Mongrel)
# Recorded Conditions: 2 hours, i.v. 100 μCi, Thyroid
Metric Name: tissue concentration (Mean + S.E.M.)

Incoming: Value lookup for tissue concentration (Mean + S.E.M.); key = N=C(N)NCc1ccc(N)c([125I])c1 [I-125 4-amino-3-iodobenzylguanidine]
Outgoing: 0.85 % kg dose/g
